List of MIC values.
# Tested on: Talaromyces islandicus
# Protocol summary: Antifungal activity against Penicillium islandicum YM3104 after 72 hrs by disk diffusion method
# Format: functional
Just the number please, in µg/mL, no unit attached.

A selection of reference data follows.
CC(=O)O[C@@H]1C[C@@H](C)OC(=O)CC[C@H](O)CC1=O    250
CC(=O)O[C@@H]1C[C@@H](C)OC(=O)[C@H]2O[C@H]2/C=C/[C@@H]1O [8ALPHA-ACETOXYMULTIPLOLIDE A]    250

Switching to the query record.
Exercise: Value lookup for MIC; key = C[C@@H]1C[C@@H](O)[C@@H](O)/C=C/[C@@H]2O[C@@H]2C(=O)O1 [MULTIPLOLIDE A]
Solution: 250

###

Consider the following molecules and their measured MIC readings.
# Tested on: Ophiostoma minus
# Protocol summary: Antifungal activity against Ophiostoma minus YM3429 after 72 hrs by disk diffusion method
# Assay type: functional

C[C@@H]1C[C@@H](O)[C@@H](O)/C=C/[C@@H]2O[C@@H]2C(=O)O1 [MULTIPLOLIDE A]    > 500 µg/mL

Exercise: What value of MIC has been reported for the following molecule? CC(=O)O[C@@H]1C[C@@H](C)OC(=O)CC[C@H](O)CC1=O
Solution: > 500 µg/mL

Exercise: Item CC(=O)O[C@H]1/C=C/[C@@H]2O[C@@H]2C(=O)O[C@H](C)C[C@H]1O [7ALPHA-ACETOXYMULTIPLOLIDE A] has what recorded MIC?
Solution: > 500 µg/mL

Exercise: Requested read-out: MIC. Entry: C[C@@H]1C[C@@H](O)[C@@H](O)/C=C/C=C\C(=O)O1
Solution: > 500 µg/mL

Exercise: Would you mind telling me what MIC value was observed for CC(=O)O[C@@H]1C[C@@H](C)OC(=O)[C@H]2O[C@H]2/C=C/[C@@H]1O [8ALPHA-ACETOXYMULTIPLOLIDE A] ?
Solution: 31.2 µg/mL

###

Documented MIC across a set of compounds
# System: Botrytis cinerea
# Protocol summary: Antifungal activity against Botrytis cinerea YM3061 after 72 hrs by disk diffusion method
# Assay type: functional
Number only, in µg/mL; omit the unit.

Exercise: Sample CC(=O)O[C@@H]1C[C@@H](C)OC(=O)[C@H]2O[C@H]2/C=C/[C@@H]1O [8ALPHA-ACETOXYMULTIPLOLIDE A] — what was its MIC?
Solution: 62.5

Exercise: Tell me the measured MIC of C[C@@H]1C[C@@H](O)[C@@H](O)/C=C/C=C\C(=O)O1 , please.
Solution: 500

Exercise: Consider the compound CC(=O)O[C@@H]1C[C@@H](C)OC(=O)CC[C@H](O)CC1=O and give its measured MIC.
Solution: 250
